Read-out: Thrombomodulin, THBD (gene 7056)
protocol summary: BSK_LPS_Thrombomodulin: BioMAP Diversity Plus: LPS Assay for Thrombomodulin Biomarker Activity (AID 2284296)
condition details: primary human HUVEC with PBMC
The source made the active and inactive calls. Rule for the calls: active = hit-call score of the fitted dose curve at least 0.9, where 1 is the maximum; inactive = score below 0.9.
measure name: outcome

Item CCCCCCCCC(F)(F)C(F)(F)C(F)(F)C(F)(F)C(F)(F)C(F)(F)F : provide outcome
inactive

Item C=CC(=O)OCC(F)(F)C(F)(F)C(F)(F)C(F)(F)C(F)(F)C(F)(F)C(F)(F)F : provide outcome
inactive

Item CCO[Si](CCC(F)(F)C(F)(F)C(F)(F)C(F)(F)C(F)(F)C(F)(F)F)(OCC)OCC : provide outcome
inactive

Item FC(F)(F)C(F)(F)C(F)(F)C(F)(F)C(F)(F)C(F)(F)C(F)(F)I : provide outcome
inactive
